# MEASURED_TARGET: T1, CD66c (CEACAM6) on CD66c-positive A549 non-small-cell lung cancer cells (UniProt P40199 35-320, limits assumed)
# T1 construct: whole, on cells; also called CD66c antigen; NCA-90
# T1 sequence (looked up): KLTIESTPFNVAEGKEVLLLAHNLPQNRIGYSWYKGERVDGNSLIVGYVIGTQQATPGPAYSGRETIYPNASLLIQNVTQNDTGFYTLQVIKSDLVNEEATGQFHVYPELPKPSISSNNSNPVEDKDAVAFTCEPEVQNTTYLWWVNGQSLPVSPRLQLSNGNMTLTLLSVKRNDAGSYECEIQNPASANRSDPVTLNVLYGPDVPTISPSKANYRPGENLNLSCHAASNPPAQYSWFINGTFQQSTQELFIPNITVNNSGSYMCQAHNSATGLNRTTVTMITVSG
# PROTOCOL_TEXT: flow cytometry on CD66c-positive A549 cells, mean fluorescence
# Protocol: Each expressed 96 recombinant humanized antibody was poured and reacted in a test tube containing the same amount ([…]) of CD66c-positive A549 non-small-cell lung cancer cell line at 4° C. for 30 minutes, washed with PBS, and treated with FITC-conjugated goat anti-Human IgG (DiNona Inc, Korea) was added and incubated at 4° C. for 15 minutes. After washing with PBS, the cells were analyzed with a flow cytometer (Stratedigm, S1000EXi) and the results are shown below. […]
ASSAY_METRIC: Mean
Returns: the value as a bare number; no unit string appended.

# example entries with known answers
anti-CD66c chimeric antibody 8F5 (antibody, human IgG1, V domains shown, also called chimeric 8F5 antibody; chi 8F5) VH: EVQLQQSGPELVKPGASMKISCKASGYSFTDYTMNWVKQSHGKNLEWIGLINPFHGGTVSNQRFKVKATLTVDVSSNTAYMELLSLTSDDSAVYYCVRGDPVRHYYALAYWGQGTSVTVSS VL: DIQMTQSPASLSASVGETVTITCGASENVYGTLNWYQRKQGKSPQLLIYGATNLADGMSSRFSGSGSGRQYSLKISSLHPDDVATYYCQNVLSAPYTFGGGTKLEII    619
recombinant humanized anti-CD66c antibody Protein ID 2938 (Vk5 + VH7) (antibody, human IgG1, V domains shown, also called hu 2938) VH: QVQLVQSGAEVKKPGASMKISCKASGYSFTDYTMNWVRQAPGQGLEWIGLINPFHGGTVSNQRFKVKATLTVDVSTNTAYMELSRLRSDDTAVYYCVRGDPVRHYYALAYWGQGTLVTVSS VL: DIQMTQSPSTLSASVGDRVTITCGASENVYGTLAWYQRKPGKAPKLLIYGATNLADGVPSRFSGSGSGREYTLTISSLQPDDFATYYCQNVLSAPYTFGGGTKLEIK    611
recombinant humanized anti-CD66c antibody Protein ID 3043 (Vk8 + VH6) (antibody, human IgG1, V domains shown, also called hu 3043; #71) VH: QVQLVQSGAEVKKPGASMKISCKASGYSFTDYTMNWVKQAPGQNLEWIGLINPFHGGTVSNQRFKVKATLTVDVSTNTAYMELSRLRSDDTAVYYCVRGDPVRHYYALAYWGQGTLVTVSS VL: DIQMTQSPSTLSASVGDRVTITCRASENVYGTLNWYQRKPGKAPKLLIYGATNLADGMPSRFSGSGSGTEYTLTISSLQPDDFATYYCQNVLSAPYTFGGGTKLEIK    686
recombinant humanized anti-CD66c antibody Protein ID 3010 (Vk7 + VH7) (antibody, human IgG1, V domains shown, also called #45) VH: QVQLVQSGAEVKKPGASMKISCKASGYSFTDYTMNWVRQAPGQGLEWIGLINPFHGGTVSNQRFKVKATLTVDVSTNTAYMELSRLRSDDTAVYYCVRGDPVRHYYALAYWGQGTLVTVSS VL: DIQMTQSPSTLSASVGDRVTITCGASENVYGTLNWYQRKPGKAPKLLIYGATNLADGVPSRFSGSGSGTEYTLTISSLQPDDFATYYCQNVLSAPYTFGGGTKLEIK    554
recombinant humanized anti-CD66c antibody Protein ID 3046 (Vk8 + VH7) (antibody, human IgG1, V domains shown, also called #74) VH: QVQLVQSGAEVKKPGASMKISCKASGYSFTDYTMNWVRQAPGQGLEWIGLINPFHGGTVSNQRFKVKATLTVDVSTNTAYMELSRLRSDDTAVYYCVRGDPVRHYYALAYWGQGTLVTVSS VL: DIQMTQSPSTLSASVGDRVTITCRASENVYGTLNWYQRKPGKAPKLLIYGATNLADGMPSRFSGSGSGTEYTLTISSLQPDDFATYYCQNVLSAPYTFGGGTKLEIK    523

Give a short answer stating reported Mean for recombinant humanized anti-CD66c antibody Protein ID 3007 (Vk7 + VH6) (antibody, human IgG1, V domains shown, also called hu 3007; #43) VH: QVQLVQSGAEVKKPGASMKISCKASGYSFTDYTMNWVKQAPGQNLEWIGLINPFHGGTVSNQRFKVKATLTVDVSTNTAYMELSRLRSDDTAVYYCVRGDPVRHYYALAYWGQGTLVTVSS VL: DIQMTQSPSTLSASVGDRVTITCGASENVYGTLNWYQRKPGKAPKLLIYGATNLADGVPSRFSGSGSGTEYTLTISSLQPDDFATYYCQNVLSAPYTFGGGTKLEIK .
565

Give a short answer stating reported Mean for recombinant humanized anti-CD66c antibody Protein ID 3058 (Vk8 + VH11) (antibody, human IgG1, V domains shown, also called hu 3058; #86) VH: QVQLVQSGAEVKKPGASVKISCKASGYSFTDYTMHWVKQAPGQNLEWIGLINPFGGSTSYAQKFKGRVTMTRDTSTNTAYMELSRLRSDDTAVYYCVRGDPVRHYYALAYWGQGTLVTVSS VL: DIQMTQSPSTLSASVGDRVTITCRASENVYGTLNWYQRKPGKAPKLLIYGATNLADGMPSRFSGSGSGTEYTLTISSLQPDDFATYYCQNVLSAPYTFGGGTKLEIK .
645

Give a short answer stating reported Mean for recombinant humanized anti-CD66c antibody Protein ID 3019 (Vk7 + VH10) (antibody, human IgG1, V domains shown, also called hu 3019; #51) VH: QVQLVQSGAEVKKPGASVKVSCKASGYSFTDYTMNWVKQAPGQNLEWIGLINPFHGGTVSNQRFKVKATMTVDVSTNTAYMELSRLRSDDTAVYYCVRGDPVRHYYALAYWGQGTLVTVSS VL: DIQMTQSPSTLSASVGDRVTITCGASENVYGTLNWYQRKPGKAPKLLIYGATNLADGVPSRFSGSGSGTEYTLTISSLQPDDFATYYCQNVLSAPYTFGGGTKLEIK .
561

Give a short answer stating reported Mean for recombinant humanized anti-CD66c antibody Protein ID 3004 (Vk7 + VH5) (antibody, human IgG1, V domains shown, also called #41) VH: QVQLVQSGAEVKKPGASVKISCKASGYSFTDYTMNWVRQAHGQNLEWIGLINPFHGGTVSNQRFKVKATLTVDVSTNTAYMELSRLRSDDTAVYYCVRGDPVRHYYALAYWGQGTLVTVSS VL: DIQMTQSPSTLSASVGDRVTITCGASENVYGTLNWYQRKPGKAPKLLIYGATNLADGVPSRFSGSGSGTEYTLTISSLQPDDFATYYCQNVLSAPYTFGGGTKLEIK .
541
